- Target: 11β-HSD1 (Homo sapiens, UniProt P28845)
- Sequence (P28845 whole entry): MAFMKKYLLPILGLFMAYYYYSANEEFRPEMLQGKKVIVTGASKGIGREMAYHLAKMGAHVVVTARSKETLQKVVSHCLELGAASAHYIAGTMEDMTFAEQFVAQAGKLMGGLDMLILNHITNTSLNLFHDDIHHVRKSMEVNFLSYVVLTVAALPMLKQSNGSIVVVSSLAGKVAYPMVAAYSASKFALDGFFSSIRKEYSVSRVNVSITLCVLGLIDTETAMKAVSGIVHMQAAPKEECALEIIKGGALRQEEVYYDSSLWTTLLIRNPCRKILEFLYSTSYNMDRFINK
- Experimental protocol: biochemical
- Conditions used: Biological Test Example 1 IC50 (nM)
# Lookup of reported IC50 keyed by entry
Recorded endpoint: IC50 (nM)

Compound	Recorded endpoint	Assay result
Cc1cc(-c2ccc([C@H](C)N3CC[C@](CCCO)(c4ccc(F)cc4)OC3=O)cc2)cc(C)[n+]1[O-] [EXAMPLE 122]	IC50	2.5
Cc1cc(-c2ccc([C@H](C)N3CC[C@](CCC(N)=O)(c4ccc(F)cc4)OC3=O)cc2)ccn1 [EXAMPLE 78]	IC50	1.8
Cc1cc(-c2ccc([C@H](C)N3CC[C@](CCCN(C)S(C)(=O)=O)(c4ccccc4)OC3=O)cc2)ccn1 [EXAMPLE 119]	IC50	2
Cc1nc(C)c(-c2ccc([C@H](C)N3CC[C@](CCCO)(c4ccc(F)cc4)OC3=O)cc2)s1 [EXAMPLE 83]	IC50	1
C[C@@H](c1ccc(-c2ccc(C(=O)NC3CC3)cn2)cc1)N1CC[C@](CC(C)(C)C#N)(c2ccccc2)OC1=O [EXAMPLE 2]	IC50	0.8
CCOc1ncc(-c2ccc([C@H](C)N3CC[C@](CC(C)(C)O)(c4ccccc4)OC3=O)cc2)cc1C [EXAMPLE 160]	IC50	1
C[C@@H](c1ccc(-c2ncc(C(=O)NC3CC3)s2)cc1)N1CC[C@](CC(C)(C)C#N)(c2ccccc2)OC1=O [EXAMPLE 21]	IC50	0.4
C[C@@H](c1ccc(-c2cnc(C(=O)NC3CC3)nc2)cc1)N1CC[C@](CC(C)(C)C#N)(c2ccccc2)OC1=O [EXAMPLE 16]	IC50	0.8
COc1ccc(-c2ccc([C@H](C)N3CC[C@](CCCNS(C)(=O)=O)(c4ccc(F)cc4)OC3=O)cc2)cn1 [EXAMPLE 67]	IC50	0.7
C=CC[C@]1(c2ccccc2)CCN([C@@H](C)c2ccc(-c3cncc(F)c3)cc2)C(=O)O1 [EXAMPLE 46]	IC50	0.8
CCOc1cc(-c2ccc([C@H](C)N3CC[C@](CC(C)(C)O)(c4ccccc4)OC3=O)cc2)cc(C)n1 [EXAMPLE 162]	IC50	1.4
Cc1nnc(-c2ccc([C@H](C)N3CC[C@](CC(C)(C)O)(c4ccccc4)OC3=O)cc2)s1 [EXAMPLE 172]	IC50	3.3
C[C@@H](c1ccc(-c2ncc(C(=O)N(C)C)s2)cc1)N1CC[C@](CC(C)(C)O)(c2ccccc2)OC1=O [EXAMPLE 158]	IC50	2.1
C[C@@H](c1ccc(-c2cc[nH]n2)cc1)N1CC[C@](CCCO)(c2ccccc2)OC1=O [EXAMPLE 45]	IC50	3
Cc1cc(-c2ccc([C@H](C)N3CC[C@](CCCNS(C)(=O)=O)(c4ccccc4)OC3=O)cc2)ccn1 [EXAMPLE 99]	IC50	0.5
C[C@@H](c1ccc(-c2ccc[n+]([O-])c2)cc1)N1CC[C@](CCC(N)=O)(c2ccc(F)cc2)OC1=O [EXAMPLE 68]	IC50	85.1
C[C@@H](c1ccc(-c2cncc(C(N)=O)c2)cc1)N1CC[C@](CCCO)(c2ccc(F)cc2)OC1=O [EXAMPLE 71]	IC50	44.1
Cc1nnc(CC[C@]2(c3ccccc3)CCN([C@@H](C)c3ccc(-c4ccc(C#N)cn4)cc3)C(=O)O2)s1 [EXAMPLE 146]	IC50	17.4
